Every entry's value here was drawn from PubChem BioAssay.

# protocol_text: SK-BR-3 cell growth inhibitors, pilot screen, 24 h, human (AID 572);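 further: compound exposure lasted between 18 and 24 h rather than exactly 24 h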
# experimental_setup: SK-BR-3 viability, CellTiter-Glo luminescence, at 10 µM, stronger effect = lower value
Assign labels as follows, please: Fulfilled for viability below 90%; Not fulfilled for viability equal to or exceeding 90%.

{"smiles_repr": "COc1cccc(-c2cc3nc4c(c(N5CCC6(CC5)OCCO6)n3n2)CCCC4)c1", "category": "Not fulfilled"}
{"smiles_repr": "CC(C)n1c(=NC(=O)c2ccco2)c(C#N)cc2c(=O)n3ccccc3cc21", "category": "Not fulfilled"}
{"smiles_repr": "Cc1cc(C)cc(-n2nnc(C(=O)NCc3ccc4c(c3)OCO4)c2N)c1", "category": "Not fulfilled"}
{"smiles_repr": "O=C(NCCC1=CCCCC1)C1CCN(S(=O)(=O)c2cnc[nH]2)CC1", "category": "Fulfilled"}
{"smiles_repr": "Cc1cc(C)nc(-n2nc(C)cc2NC(=O)c2ccc(Br)o2)n1", "category": "Not fulfilled"}
{"smiles_repr": "CCCCn1c(SCC(=O)NCc2ccccc2)nc2ccc(N3CCOCC3)cc2c1=O", "category": "Fulfilled"}
{"smiles_repr": "Cc1sc2nc3n(c(=O)c2c1C)NC(=O)CC3", "category": "Not fulfilled"}

###

# protocol_text: HUVEC growth inhibition – cell-based, human, primary screen (AID 575)
# experimental_setup: HUVEC proliferation, CellTiter-Glo luminescence, 72 h; at 10 µM; stronger effect = lower value
Binarize viability at 90%; below is T, at or above is F.

{"compound": "COc1ccc(C)cc1-n1nnnc1SC/C(O)=C(\\C#N)c1nc2ccccc2[nH]1", "category": "T"}
{"compound": "O=C(CN1CCN(c2nc(-c3ccc(F)cc3)cs2)CC1)NCc1ccc2c(c1)OCO2", "category": "T"}
{"compound": "Cc1cnc(C(=O)Nc2ccccc2-n2cccc2)cn1", "category": "F"}
{"compound": "O=C(c1ccco1)N1CCN(c2nc(C(F)(F)F)nc3c2nnn3Cc2ccccc2)CC1", "category": "T"}
{"compound": "O=C(O)c1ccc(COc2c(F)c(F)c(F)c(F)c2F)o1", "category": "F"}
{"compound": "COC(=O)c1ccc(COC(=O)c2c(C)nn(Cc3ccccc3Cl)c2Cl)o1", "category": "F"}
{"compound": "O=C(NCCCN1CCCC1=O)c1ccc2c(=O)n(Cc3ccco3)c(=S)[nH]c2c1", "category": "F"}
{"compound": "O=C(COc1ccccc1)Nc1ccccc1N1CCN(c2ccccc2)CC1", "category": "F"}
{"compound": "O=C(Cn1cnc2c(cnn2-c2ccc(F)cc2)c1=O)N1CCN(c2ccccc2)CC1", "category": "F"}
{"compound": "CCCN(CCC)c1nc2ccccc2n2c(C)nnc12", "category": "T"}
{"compound": "C#CC1(O)CC(C)N(C)C(C)C1 (centres undefined)", "category": "T"}
{"compound": "COc1ccc(N2C(=O)C(Cl)=C(Nc3c(C)n(C)n(-c4ccccc4)c3=O)C2=O)cc1", "category": "T"}
{"compound": "CCCCNC(=O)c1cc(-c2ccc(F)cc2)on1", "category": "T"}
{"compound": "CC(C)c1nc(NCC2CCCO2)c(C#N)c2c1COC(C)(C)C2 (centres undefined)", "category": "T"}
{"compound": "O=C1CCCN1Cc1ncnn1-c1ccccc1", "category": "F"}
{"compound": "O=C1CC(C(=O)Nc2ccc(Br)cc2)C2(CCCC2)O1 (centres undefined)", "category": "F"}
{"compound": "N#Cc1c(N)nc(SCc2ccncc2)c(C#N)c1-c1cccs1", "category": "T"}
